These data points were gathered from PubChem BioAssay AID504834.

assay info: Primary qHTS for delayed death inhibitors of the malarial parasite plastid, 96 hour incubation
experimental conditions: P. falciparum luciferase reporter growth; series mostly up to 28.7 µM
Among all 320,000 compounds or so, about 22,000 (6.9%) were called active. Not shown: some 27% with an inconclusive outcome. Calls come from the whole dose curve; as a rule, active = well fitted inhibition curve with a large enough effect; inconclusive = small, poorly fitted or top-dose-only effect, or another doubt; inactive = no such curve, though single readings can be large or run the other way. What follows is part of a selection rich in actives, with near analogues and random picks from the rest.
Result category, one only: Y = active, N = inactive

The examples below pair each entry with its known result.
| compound | class |
| --- | --- |
| COCCn1nnnc1C(c1ccccc1Cl)N1CCN(c2ccccc2OC)CC1 (stereo not given) | N |
| CCOC(=O)N1CCN(C(=O)CSc2nc(=O)n3cccc(C)c3n2)CC1 | N |
| CCC(=O)N(C)C(c1ccccc1Cl)c1nnnn1-c1c(C)cccc1C (stereo not given) | Y |
| COc1ccc(C2CC(c3cccs3)=NN2C(=O)CCC(=O)O)cc1OC (stereo not given) | Y |

Now let's try a different one.
# lookup: test call for CCN1c2nc3c(C)cccn3c(=O)c2CC2(C(=O)N(C)C(=O)N(C)C2=O)C1C (stereo not given)
Y
